- Test system: IRAK4
- condition.notes: concentration: 1 μM, replicates: in singlicate; n = 1;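 further: KINOMEscan kinase panel screen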
experimental.readout: %Inh (%)
Write down the numeric answer in % and omit the unit.

Observe how each entry below is paired with its result.
molecule	unit.info	data.value
Cc1nnc(-c2ccc3occ(-c4ccc(C(C)O)cc4)c3c2)o1 (centres unmarked)	%	32
COc1cc(Nc2nccc(N3CCC(NC(=O)c4cccc(NC(C)=O)c4)C3)n2)cc(OC)c1OC (centres unmarked) [GSK1379754]	%	12

Req: // query %Inh value for entry Fc1ccc(-c2nn3c(OCC(F)(F)F)cccc3c2-c2ccncc2)cc1 [GW514784]
Resp: 0

Req: // query %Inh value for entry O=c1cc(N2CCOCC2)nc2n(Cc3cccc(Cl)c3Cl)c(C3CC3)nn12 [GSK2358994]
Resp: 0

Req: // query %Inh value for entry NS(=O)(=O)c1cccc(-c2ccc3ncc(N4CCOCC4)nc3c2)c1 [GSK1535721]
Resp: 11

----------
- Tested on: CDKL2
- condition.notes: concentration: 1 μM, replicates: in singlicate; n = 1
Recorded %Inh by entry
Kindly write the number and append the unit.

compound	%Inh
Cc1c(Cn2c(C)nn3c(=O)cc(N4CCOC(C)C4)nc23)cccc1C(F)(F)F (stereo not drawn)	4%

Req: Any idea what %Inh came out for `Cn1cc(-c2ccc3c(c2)CCN3C(=O)Cc2ccccc2Cl)c2c(N)ncnc21` on CDKL2?
Resp: 17%

Req: Any idea what %Inh came out for `Cc1cccc(Cn2ccn3c(=O)cc(N4CCOCC4)nc23)c1` on CDKL2?
Resp: 29%

Req: Any idea what %Inh came out for `O=c1cc(N2CCOCC2)nc2n(Cc3cccc(F)c3)ccn12` on CDKL2?
Resp: 0%

Req: Any idea what %Inh came out for `COc1ccc(COc2cc(-n3cnc4ccccc43)sc2C(N)=O)cc1` on CDKL2?
Resp: 18%

Req: Any idea what %Inh came out for `COc1ccc(Nc2ncc(C#N)c(Nc3ccccc3C(N)=O)n2)cc1N1CCN(C)CC1.Cl` on CDKL2?
Resp: 94.7%

Req: Any idea what %Inh came out for `Fc1ccc(-c2ncn(CCCN3CCOCC3)c2-c2cccnc2)cc1` on CDKL2?
Resp: 0%

Req: Any idea what %Inh came out for `Fc1ccc(-c2ncn(CCCN3CCOCC3)c2-c2ccccn2)cc1` on CDKL2?
Resp: 49%

Req: Any idea what %Inh came out for `CN(C(=O)c1ccc(-c2cc(-c3c[nH]nc3-c3ccccn3)ccn2)cc1)C1CCOCC1` on CDKL2?
Resp: 0%

----------
- Test system: IRAK1
- condition.notes: concentration: 1 μM, replicates: in singlicate; n = 1
Recorded %Inh by entry
Write down the numeric answer in % and omit the unit.

Observe how each entry below is paired with its result.
molecule	%Inh / %
COC(=O)Nc1nc2cc(Oc3ccc(NC(=O)Nc4cc(F)ccc4F)cc3)ccc2[nH]1.Cl	36
COc1ccc(CNC(=O)NC2CCN(c3ccnc(Nc4ccc(OC)cc4)n3)C2)cc1 (stereo not drawn)	28
O=C1NC(=O)C(N2CCc3ccccc32)=C1c1cccc(Cl)c1	0
COc1cc2c(cc1OC[C@@H](O)CO)ncc1c3ccc(C#N)cc3[nH]c21	97.2
Cc1ccc(NC(=O)c2ccnc(N3CCN(C)CC3)c2)cc1-c1ccc(C(=O)NCC2CC2)cc1	0
Nc1nc(-c2ccc3c(N)n[nH]c3c2)cc(N2CCCC2)n1	0
N#Cc1ccc(-c2cc(-c3c[nH]nc3-c3ccccn3)ccn2)cc1	39
COc1ccc(Nc2nccc(N3CCC(NC(=O)Nc4cccc(C(C)=O)c4)C3)n2)cc1 (stereo not drawn)	6

Req: Any idea what %Inh came out for `CSc1ccc(-c2cc3ncnc(SCC(=O)O)c3s2)cc1` on IRAK1?
Resp: 28

----------
Recorded %Inh by entry
- Tested on: MAP3K1
- condition.notes: concentration: 1 μM, replicates: in singlicate; n = 1
Write down the numeric answer in % and omit the unit.

Observe how each entry below is paired with its result.
compound	target.system	%Inh / %
Cn1ccc2ncnc(Oc3ccc(NC(=O)Nc4ccncc4)c(Cl)c3)c21	MAP3K1	0
COc1ccc(Nc2ncc(C#N)c(Nc3ccccc3C(N)=O)n2)cc1N1CCN(C)CC1.Cl	MAP3K1	38

Below: the item to evaluate.
Req: // query %Inh value for entry COc1cc(Nc2nccc(N3CCC(NC(=O)c4cccc(NC(C)=O)c4)C3)n2)cc(OC)c1OC (stereo not drawn)
Resp: 0

----------
- Test system: CAMKK1
- condition.notes: concentration: 1 μM, replicates: in singlicate; n = 1
experimental.readout: %Inh (%)
Write down the numeric answer in % and omit the unit.

Observe how each entry below is paired with its result.
compound	target.system	%Inh (%)
COc1ccc(Nc2ncc(C#N)c(Nc3ccccc3C(N)=O)n2)cc1N1CCN(C)CC1.Cl	CAMKK1	96.9
Cc1cccc(Cn2ccn3c(=O)cc(N4CCOCC4)nc23)c1	CAMKK1	5
O=c1cc(N2CCOCC2)nc2n(Cc3cccc(F)c3)ccn12	CAMKK1	25
Cn1cc(-c2ccc3c(c2)CCN3C(=O)Cc2ccccc2Cl)c2c(N)ncnc21	CAMKK1	25
Fc1ccc(-c2ncn(CCCN3CCOCC3)c2-c2cccnc2)cc1	CAMKK1	0

Below: the item to evaluate.
Req: Any idea what %Inh came out for Cc1nnc(-c2ccc3ncc(-c4ccc(S(C)=O)cc4)n3c2)o1 (stereo not drawn) on CAMKK1?
Resp: 24

----------
- System: CDK3
- condition.notes: concentration: 1 μM, replicates: in singlicate; n = 1
Recorded %Inh by entry
Write down the numeric answer in % and omit the unit.

Observe how each entry below is paired with its result.
compound	unit.info	data.value
Cc1cccc(-c2nc(-c3ccc(S(C)(=O)=O)cc3)sc2-c2ccncc2)c1	%	3
Cn1cc(-c2ccc3c(c2)CCN3C(=O)Cc2ccccc2Cl)c2c(N)ncnc21	%	0
C[C@@H](Oc1cc(-n2cnc3ccc(NC(=O)NC(C)(C)C)cc32)sc1C(N)=O)c1ccccc1Cl	%	9

Req: // query %Inh value for entry `CSc1ccc(-c2cc3ncnc(SCC(=O)O)c3s2)cc1`
Resp: 40

Req: // query %Inh value for entry `O=C(NCCCN1CCOCC1)c1cccc(Nc2nccc(Nc3ccc(Oc4ccccc4)cc3)n2)c1`
Resp: 0

Req: // query %Inh value for entry `CN1c2ccc(CNc3ccc(F)cc3)cc2-c2c(cnn2C)S1(=O)=O`
Resp: 0

Req: // query %Inh value for entry `Cc1ccc(C(=O)NCC(N)=O)cc1-n1c(C)cc(OCc2ccc(F)cc2F)c(Br)c1=O`
Resp: 0

Req: // query %Inh value for entry `COc1ccc(S(=O)(=O)NC2CCN(c3cc(C)nc(Nc4cccc(C#N)c4)n3)CC2)cc1.O=C(O)C(F)(F)F`
Resp: 0

----------
Recorded %Inh by entry
- Tested on: SIK2
- condition.notes: concentration: 1 μM, replicates: in singlicate; n = 1
Write down the numeric answer in % and omit the unit.

Observe how each entry below is paired with its result.
smi	target.system	experimental.readout	data.value
CCc1ccnc(/C=C/c2n[nH]c3cc(Sc4ccccc4C(=O)NC)ccc23)c1	SIK2	%Inh	0
O=c1cc(N2CCOCC2)nc2n(Cc3cccc(F)c3)ccn12	SIK2	%Inh	2
NS(=O)(=O)c1cccc(-c2ccc3nccc(-c4cccc(S(N)(=O)=O)c4)c3c2)c1	SIK2	%Inh	1

Req: // query %Inh value for entry `O=C(NCCCN1CCOCC1)c1cccc(Nc2nccc(Nc3ccc(Oc4ccccc4)cc3)n2)c1`
Resp: 12

Req: // query %Inh value for entry `C[C@@H](Oc1cc(-n2cnc3ccc(NC(=O)NC(C)(C)C)cc32)sc1C(N)=O)c1ccccc1Cl`
Resp: 0

----------
- Tested on: GRK2
- Construct: gene ADRBK1
- condition.notes: concentration: 1 μM, replicates: in singlicate; n = 1
experimental.readout: %Inh (%)
Write down the numeric answer in % and omit the unit.

compound	target.system	%Inh [%]
Cn1cc(-c2ccc3c(c2)CCN3C(=O)Cc2ccccc2Cl)c2c(N)ncnc21	GRK2	0
COc1ccc(Nc2ncc(C#N)c(Nc3ccccc3C(N)=O)n2)cc1N1CCN(C)CC1.Cl	GRK2	35
NS(=O)(=O)c1cccc(-c2ccc3nccc(-c4cccc(S(N)(=O)=O)c4)c3c2)c1	GRK2	0
CCn1cnc2c(N)ncnc21	GRK2	0
COc1cc2c(cc1OCCN1CCN(C)CC1)ncc1c3ccc(C#N)cc3[nH]c21	GRK2	0

Req: // query %Inh value for entry `CCc1nc(-c2cccc(C)c2)c(-c2ccnc(NCc3ccccc3)c2)s1`
Resp: 0

Req: // query %Inh value for entry `COCCNC(=O)c1ccc(-c2cc(C(=O)NC3CC3)cc(F)c2C)cc1`
Resp: 0

Req: // query %Inh value for entry `O=C1NC(=O)C(N2CCc3ccccc32)=C1c1cccc(Cl)c1`
Resp: 0

----------
Recorded %Inh by entry
- System: FYN
- condition.notes: concentration: 1 μM, replicates: in singlicate; n = 1

Observe how each entry below is paired with its result.
compound	experimental.readout	data.value
c1ccc(-c2n[nH]cc2-c2ccnc3ccccc23)nc1	%Inh	43%
CN1c2ccc(CNc3ccc(F)cc3)cc2-c2c(cnn2C)S1(=O)=O	%Inh	4%
COc1ccc(Nc2ncc(C#N)c(Nc3ccccc3C(N)=O)n2)cc1N1CCN(C)CC1.Cl	%Inh	96.8%
COC(=O)Nc1nc2cc(Oc3ccc(NC(=O)Nc4cc(F)ccc4F)cc3)ccc2[nH]1.Cl	%Inh	0%
COc1ccc(Nc2nccc(N3CCC(NC(=O)Nc4cccc(C(C)=O)c4)C3)n2)cc1 (stereo not drawn)	%Inh	1%

Req: Any idea what %Inh came out for `CC(=O)Nc1ccc(COc2ccc(Nc3ccnc4cc(-c5ccccn5)ccc34)cc2)cc1.Cl` on FYN?
Resp: 47%

Req: Any idea what %Inh came out for `Cn1ccc2ncnc(Oc3ccc(NC(=O)Nc4ccncc4)c(Cl)c3)c21` on FYN?
Resp: 0%

Req: Any idea what %Inh came out for `CN(C1=C(c2ccccc2)C(=O)NC1=O)c1ccccc1` on FYN?
Resp: 39%

Req: Any idea what %Inh came out for `COCCNC(=O)c1ccc(-c2cc(C(=O)NC3CC3)cc(F)c2C)cc1` on FYN?
Resp: 2%

Req: Any idea what %Inh came out for `Cc1nnc(-c2ccc(C)c(-c3ccc(C(=O)Nc4ccc(NS(C)(=O)=O)cc4)cc3)c2)o1` on FYN?
Resp: 17%
